target: TRPV1 human (Homo sapiens, UniProt Q8NER1); construct: expressed in transfected cells; host or cells: CHO K1 cells; test: Functional FLIPR Ca2+ influx assay on vanilloid receptor 1 (VR1/TRPV1), capsaicin stimulus; type: cell-based; conditions: functional (f), vs capsaicin (CAP); Ki from IC50 by Cheng-Prusoff
Sequence (Q8NER1 whole entry): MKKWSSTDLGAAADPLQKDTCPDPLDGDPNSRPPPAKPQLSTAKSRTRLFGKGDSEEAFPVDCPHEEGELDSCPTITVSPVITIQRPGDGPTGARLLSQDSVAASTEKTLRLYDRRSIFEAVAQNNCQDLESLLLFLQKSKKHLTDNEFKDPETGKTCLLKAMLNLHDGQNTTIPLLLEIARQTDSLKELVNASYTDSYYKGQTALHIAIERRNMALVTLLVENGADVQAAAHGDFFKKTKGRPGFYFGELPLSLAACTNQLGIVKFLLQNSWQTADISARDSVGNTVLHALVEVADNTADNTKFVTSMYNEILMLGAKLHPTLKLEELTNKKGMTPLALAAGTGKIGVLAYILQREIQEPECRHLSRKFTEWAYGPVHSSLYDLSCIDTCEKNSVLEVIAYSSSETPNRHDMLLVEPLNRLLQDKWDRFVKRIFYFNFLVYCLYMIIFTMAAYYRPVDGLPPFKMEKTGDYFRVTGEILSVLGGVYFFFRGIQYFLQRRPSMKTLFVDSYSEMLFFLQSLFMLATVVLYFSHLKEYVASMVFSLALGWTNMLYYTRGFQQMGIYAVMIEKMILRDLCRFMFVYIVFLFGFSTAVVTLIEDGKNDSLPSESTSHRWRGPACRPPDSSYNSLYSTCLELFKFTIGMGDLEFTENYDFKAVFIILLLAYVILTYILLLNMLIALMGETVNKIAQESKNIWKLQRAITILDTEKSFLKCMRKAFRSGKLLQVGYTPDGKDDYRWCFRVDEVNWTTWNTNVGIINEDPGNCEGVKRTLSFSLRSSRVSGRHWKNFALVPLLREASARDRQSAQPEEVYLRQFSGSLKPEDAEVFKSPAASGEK
RECORDED ENDPOINT: Ki (nM)

Query string: Report Ki, nothing else, for this compound: Cc1cccc(-c2nc(C(F)(F)F)ccc2CNC(=O)C(C)c2cnc(C(=O)Nc3ccc(F)cc3)nc2)c1 (stereo not shown) [compound 81]
Result string: 5

[I] COCCOc1ccc(NC(=O)NCc2ccc(C(F)(F)F)nc2N2CCC(C)CC2)cn1 [compound 124]
[II] CC1CCN(c2nc(C(F)(F)F)ccc2CNC(=O)Cc2ccccn2)CC1 [compound 13]
[III] CC1CCN(c2nc(C(F)(F)F)ccc2CNC(=O)C(C)c2cnc(NS(C)(=O)=O)c(F)c2)CC1 (stereo not shown) [compound 96]
Query string: Ascending by Ki, please: list the compounds accordingly. List the labels in the requested order.
Result string: III, I, II
